Test system: human Hep G2 cells (ATCC HB-8065)
Assay: Cytotoxicity in Hep G2 cells (CellTiter-Glo)
Type: cell-based
Settings: Hep G2 cells, 100 μM test article, 24-hour exposure
readout.type: % Cell Viability (%)
Give the quantity in %, number only.

Consider the following illustrative entries.
compound	display.unit	% Cell Viability
COc1ccc(-c2cnn(C)c2)cc1[C@@H](C)NC(=O)c1cc(N2CCN(C)CC2)ccc1C	%	101.6
Cc1ccc(N2CCN(C)CC2)cc1C(=O)N[C@H](C)c1cc(F)cc(Br)c1	%	44.7
Cc1ccc(N2CCN(C)CC2)cc1C(=O)N[C@H](C)c1cccc(-c2cccc(C(O)CO)c2)c1 (some centres unmarked)	%	68.4

Now for a further compound.
Identify measured % Cell Viability associated with `Cc1ccc(N2CCN(C)CC2)cc1C(=O)N[C@H](C)c1cccc(-c2cnc(N)nc2)c1`
75.6
